Reference for the values: patent US20140322307A1

# system: T1, Proteinase-Activated Receptor-2 (human, on human keratinocytes) (human, UniProt P55085 37-397)
# T1 sequence (looked up): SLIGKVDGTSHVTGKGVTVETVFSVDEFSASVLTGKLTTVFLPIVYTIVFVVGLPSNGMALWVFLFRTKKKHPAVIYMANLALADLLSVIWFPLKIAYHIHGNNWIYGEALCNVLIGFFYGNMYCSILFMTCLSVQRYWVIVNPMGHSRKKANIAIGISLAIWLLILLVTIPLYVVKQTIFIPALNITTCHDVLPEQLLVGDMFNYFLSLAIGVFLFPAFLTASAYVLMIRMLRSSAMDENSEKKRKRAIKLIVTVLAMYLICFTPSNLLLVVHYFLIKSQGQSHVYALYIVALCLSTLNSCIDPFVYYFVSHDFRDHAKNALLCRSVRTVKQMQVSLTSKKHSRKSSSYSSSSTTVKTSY
# protocol summary: cell-based or functional assay
measurement kind: Inhibition PAR-2 activity (calcium fluorescence, human keratinocytes, peptide at 1 mg/mL) (%)

| binder | result value |
| --- | --- |
| Ac-FFWDIV-NH2 [Ac-L-Phe-L-Phe-L-Trp-L-Asp-L-Ile-L-Val-NH2] | 67.4 |
| Ac-SFRFIS-NH2 [Ac-L-Ser-L-Phe-L-Arg-L-Phe-L-Ile-L-Ser-NH2] | 16.2 |
| Ac-FMWFHS-NH2 [Ac-L-Phe-L-Met-L-Trp-L-Phe-L-His-L-Ser-NH2] | 72.2 |
| Ac-FFQDIV-NH2 [Ac-L-Phe-L-Phe-L-Gln-L-Asp-L-Ile-L-Val-NH2] | 35.9 |
| Ac-FFQFHV-NH2 [Ac-L-Phe-L-Phe-L-Gln-L-Phe-L-His-L-Val-NH2] | 19.9 |

I = Ac-FFWFIS-NH2 [Ac-L-Phe-L-Phe-L-Trp-L-Phe-L-Ile-L-Ser-NH2]
II = Ac-FMQFHV-NH2 [Ac-L-Phe-L-Met-L-Gln-L-Phe-L-His-L-Val-NH2]
Enquiry: Min Inhibition PAR-2 activity (calcium fluorescence, human keratinocytes, peptide at 1 mg/mL)? I | II Indicate which entry you chose by stating its label.
Return: II
